System: L1210 leukemia ip in BDF1 mice, survival T/C
Experiment: NCI In Vivo Anticancer Drug Screen. Data for tumor model L1210 Leukemia (intraperitoneal) in B6D2F1 (BDF1) mice
Details: endpoint: mean survival time; dose: 80.0 mg/kg/injection; schedule: Q01DX001 (ip); vehicle: saline; higher = longer survival
Inconclusive results and toxic doses are left out.
A collection of compounds and their measured T/C

>>> reported("O=c1[nH]c2cnn(-c3ccccc3)c2c(=O)n1OS(=O)(=O)c1ccccc1")
"97 % of control"
>>> reported("COc1ccc(C[C@H](N)C(=O)NC2C(CO)OC(n3cnc4c(N(C)C)ncnc43)C2O)cc1 (some centres undefined)")
"100 % of control"
>>> reported("S=C(N/N=C/c1ccc(Cl)cc1Cl)Nc1cccc2cccnc12")
"90 % of control"

Exercise: Report measured T/C; entry is NC(N1CC1)(C(F)(F)F)C(F)(F)F
Key: 102 % of control
